target: Protein cereblon/Zinc finger protein Aiolos (Homo sapiens, UniProt Q96SW2+Q9UKT9); assay: Induction of CRBN-mediated pLOC-ePL-tagged aiolos (unknown origin) degradation in human DF15 cells assessed as minimum protein remaining incubated for 4 hrs by luminescence based beta-galactosidase enzyme fragmentation complementation assay; type: cell-based
Sequence (Q96SW2 whole entry, the tested form may be a part): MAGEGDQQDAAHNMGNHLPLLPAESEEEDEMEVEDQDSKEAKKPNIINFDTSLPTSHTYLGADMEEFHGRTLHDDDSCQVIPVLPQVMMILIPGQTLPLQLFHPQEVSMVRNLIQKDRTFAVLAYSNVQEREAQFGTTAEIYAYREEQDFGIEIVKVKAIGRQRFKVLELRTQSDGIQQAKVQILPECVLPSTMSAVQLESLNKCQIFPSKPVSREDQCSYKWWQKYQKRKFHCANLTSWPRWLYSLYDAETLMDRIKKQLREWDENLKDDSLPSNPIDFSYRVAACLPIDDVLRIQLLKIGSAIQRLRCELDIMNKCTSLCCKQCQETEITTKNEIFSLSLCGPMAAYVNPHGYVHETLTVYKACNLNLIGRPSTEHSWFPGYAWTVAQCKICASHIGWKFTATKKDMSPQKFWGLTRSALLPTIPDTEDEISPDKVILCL
Sequence (Q9UKT9 whole entry, the tested form may be a part): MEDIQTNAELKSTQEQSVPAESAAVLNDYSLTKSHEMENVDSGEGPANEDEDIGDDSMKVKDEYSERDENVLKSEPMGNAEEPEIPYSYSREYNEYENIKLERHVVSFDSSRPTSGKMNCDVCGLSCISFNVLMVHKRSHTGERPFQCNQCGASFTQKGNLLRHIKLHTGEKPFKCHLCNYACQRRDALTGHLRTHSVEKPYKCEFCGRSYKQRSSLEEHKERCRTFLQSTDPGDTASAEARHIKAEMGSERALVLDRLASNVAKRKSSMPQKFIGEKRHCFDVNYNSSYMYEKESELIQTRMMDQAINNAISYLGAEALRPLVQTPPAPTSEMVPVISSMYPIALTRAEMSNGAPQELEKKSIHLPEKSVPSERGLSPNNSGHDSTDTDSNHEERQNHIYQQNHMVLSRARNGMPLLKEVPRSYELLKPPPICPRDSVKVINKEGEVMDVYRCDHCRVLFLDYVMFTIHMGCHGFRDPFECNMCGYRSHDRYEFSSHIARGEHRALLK
reported.property: EC50 (nM)

Please review the following examples before continuing.
compound: O=C1CCC(N2Cc3c(OCc4ccc(CN5CCN(c6ccccc6F)CC5)cc4)cccc3C2=O)C(=O)N1 (configuration not stated)
EC50 [nM]: 0.2
//
compound: O=C1CCC(N2Cc3c(OCc4ccc(CN5CCN(c6ccc(F)cc6)CC5)cc4)cccc3C2=O)C(=O)N1 (configuration not stated)
EC50 [nM]: 0.1
//
compound: NC(=O)c1ccc(N2CCN(Cc3ccc(COc4cccc5c4CN(C4CCC(=O)NC4=O)C5=O)cc3)CC2)cn1 (configuration not stated)
EC50 [nM]: 0.4
//
compound: O=C1CCC(N2Cc3c(OCc4ccc(C(=O)N5CCN(c6ccc(F)cc6)CC5)cc4)cccc3C2=O)C(=O)N1 (configuration not stated)
EC50 [nM]: 0.3
//
compound: CC1(C)CCN(Cc2ccc(COc3cccc4c3CN(C3CCC(=O)NC3=O)C4=O)cc2)CC1 (configuration not stated)
EC50 [nM]: 0.3
//
compound: O=C1CCC(N2Cc3c(OCc4ccc(CN5CCN(c6cccc(F)c6)CC5)cc4)cccc3C2=O)C(=O)N1 (configuration not stated)
EC50 [nM]: 0.1

[A] O=C1CCC(N2Cc3c(OCc4ccc(CN5CCC(F)(F)CC5)cc4)cccc3C2=O)C(=O)N1 (configuration not stated)
[B] CC1CCN(Cc2ccc(COc3cccc4c3CN(C3CCC(=O)NC3=O)C4=O)cc2)CC1 (configuration not stated)
[C] O=C1CCC(N2Cc3c(OCc4ccc(CN5CCN(c6ccc(Cl)cc6)CC5)cc4)cccc3C2=O)C(=O)N1 (configuration not stated)
Order field: EC50 | Direction: descending (largest first) Kindly provide the labels arranged according to the requested ordering.
B, A, C
(B: 1 nM, A: 0.5 nM, C: 0.1 nM)

[P] O=C1CCC(N2Cc3c(OCc4ccc(CN5CCC(C(F)(F)F)CC5)cc4)cccc3C2=O)C(=O)N1 (configuration not stated)
[Q] O=C1CCC(N2Cc3c(OCc4ccc(CN5CCN(c6ccccn6)CC5)cc4)cccc3C2=O)C(=O)N1 (configuration not stated)
Identify the item whose EC50 is the smaller number: P or Q Mark your answer with the label of the selected entry.
Q
(Q: 0.4 nM, P: 0.6 nM)

[1] COc1ccc(N2CCN(Cc3ccc(COc4cccc5c4CN(C4CCC(=O)NC4=O)C5=O)cc3)CC2)cc1 (configuration not stated)
[2] O=C1CCC(N2Cc3c(OCc4ccc(C(=O)N5CCN(c6ccc(Cl)cc6Cl)CC5)cc4)cccc3C2=O)C(=O)N1 (configuration not stated)
Between 1 and 2 , which one has the lower reported EC50 value? Indicate which entry you chose by stating its label.
2

---

assay: Solubility of the compound at pH 5; assay type: physicochemical; conditions: buffer
reported.property: solubility (µg/mL)
Report the value in µg/mL with no unit label.

Quick one: solubility for N#Cc1ccc(N2CCN(Cc3ccc(COc4cccc5c4CN([C@H]4CCC(=O)NC4=O)C5=O)cc3)CC2)c(F)c1 [MEZIGDOMIDE] ?
90

---

experiment: Antiproliferative activity against lenalidomide-resistant human H929-R10-1 cells incubated for 5 days by CellTiter-Glo assay; assay type: functional; settings: 120 h
Measured IC50, listed per entry for reference.
Lab book: enter the figure in nM, no units written.

molecule: O=C1CCC(N2Cc3c(OCc4ccc(CN5CCN(c6ccc(Cl)cc6)CC5)cc4)cccc3C2=O)C(=O)N1 (stereo unspecified)
IC50 (nM): 3.6

Shift focus to the following entry.
Item O=C1CCC(N2Cc3c(OCc4ccc(CN5CCC(F)(F)CC5)cc4)cccc3C2=O)C(=O)N1 (stereo unspecified) has what recorded IC50?
20.5
